tested on: MS2 coat protein; assay: apparent KD of MS2 coat protein; designed switch direction (-1 OFF switch, 1 ON switch): -1; higher = weaker reporter binding; settings: input ligand: FMN 200 uM
measurement-type: apparent KD of MS2 coat protein (nM)
Form entry: value (nM) — number only.

Below: 2 sequences and their reported apparent KD of MS2 coat protein.
sequence-input	apparent KD of MS2 coat protein / nM
AUUGGGUGAGGAUAUCCAUCUGGAUCAGACUAGAUCCUGAUGGAGAAGGCACAUGAGGAUCACCCAUGUGAGUU [Eli 4x 4.34] (Eterna round: R97, puzzle: Exclusion 4)	108
CAGAGCAGACGGAGAUCCAACAUGAGGAUCACCCAUGUCUCAAAAGCUUUUUGCUCGUCUUAUCCUCCUCUGUUCAC [Esquitian 3] (Eterna round: R97, puzzle: Sensor, turn-off variant 1)	26

Now, please, on to the next sequence.
## Task // apparent KD of MS2 coat protein lookup, key: GCACGGAGUGUAGGAUAUUAGUGCGAUUAGCACUGAGAAGGACAUGAGGAUCACCCAUGUUCCUCAAUAACUCACCUUCCGUGC [Eli exng1 - 043] (Eterna round: R96, puzzle: Exclusion NG 1)
## Result 9.73

###

system: MS2 coat protein; experiment: apparent KD of MS2 coat protein, switch OFF state (with FMN for OFF switches, without FMN for ON switches); designed switch direction (-1 OFF switch, 1 ON switch): 1; higher = weaker reporter binding; details: FMN input: 0 or 200 uM; Eterna round: R93 (includes R88 designs)
measurement-type: apparent KD of MS2 coat protein

## Task Give the measured apparent KD of MS2 coat protein of AAUACACAUAGUCAGGAUAUCAAAACUAAGACAUGAGGAUCACCCAUGUAAUAAGUAAAAGUAAAUGAGAAGGGACAGGGUGACC [JR_SS002_Sub404] .
## Result 63.9 nM

## Task So what does the record say about apparent KD of MS2 coat protein for AAAAAACAUGAGGAUCACCCAUGUCCUCGGACAUGAGGAUAUGUACAGACUUCGGUCUGUACAGAAGGCAUGUAAA [SS1 - 1018] ?
## Result 684 nM

## Task Item AGAAAUAAAAGAGAGGAUAUCCAAAAGGGAACAUGAGGAUCACCCAUGUAAAUGAAAAUAAAAUGGGAGAAGGCUCAAAAUAAAG [80% More Helter Skelter 2] has what recorded apparent KD of MS2 coat protein?
## Result 85 nM

## Task Would you kindly share the measured apparent KD of MS2 coat protein for AACAAUCUAUCUGAGGAUAUCAUAUAAAAGACAUGAGGAUCACCCAUGUAGCAGGAAACUGCAUAUGAGAAGGCAGAUAGAUUGA [SS2: 1121] ?
## Result 10.8 nM

## Task Recorded apparent KD of MS2 coat protein for AGCCAACAUGAGGAUCACCCAUGUCAAACAAGUCAAGGAUAUGGGCCUCUAAAAGGAGUACCAGAAGGUGAGAAAU [Vequatge] , please?
## Result 52.6 nM

## Task Looking for the measured apparent KD of MS2 coat protein of AAGAAACAUGAGGAUCACCCAUGUGAGAUAAACACAGGAUAUGCGAAAAGAAACAAAGAAGCAGAAGGGUGAAGAA [Mat - Same State 1 - Tesla mod - 55] , can you help?
## Result 126 nM

## Task Report apparent KD of MS2 coat protein for AAACCACAUGAGGAUCACCCAUGUAGAAAUAUGGGAGGAUAUACGAAGACGAAAGUCAAAGUAGAAGGCCUAAAAG [saturn 1] please.
## Result 72.4 nM

## Task # query: apparent KD of MS2 coat protein of entry AAGAAACAUGAGGAUCACCCAUGUAAACUCGAGAGAGGAUAUCGUACAUGGAAGAUUCAACGAGAAGGCUCUAGAG [Same State 1.1a (Pariah 3, G boost at 31, GC 76/28)]
## Result 41.5 nM

## Task State the recorded apparent KD of MS2 coat protein for this entry: GAAAAACAUGAGGAUCACCCAUGUAAAAAAAUGGGAGGAUAUACAAAGACGAAAGUCAAAGUAGAAGGCCUGAAAG [same state 2]
## Result 81.8 nM

## Task Which apparent KD of MS2 coat protein is listed for AAAAAACAUGAGGAUCACCCAUGUGAAAAUAUGGAAGGAUAUACCGAAAAAAAAAAAAAGGUAGAAGGUCUAAAAA [SS! 1 MT 4] ?
## Result 32.3 nM

## Task Recorded apparent KD of MS2 coat protein for ACAAACAAAAGAGAGGAUAUCCAAAAGAAAACAUGAGGAUCACCCAUGUGAAAGAAAAUAAAAUGGGAGAAGGCUCAGAACAACA [Topaz 28] , please?
## Result 46.2 nM

## Task // query apparent KD of MS2 coat protein value for entry AAUAUACAUGAGGAUCACCCAUGUUUUAAUAGUUGAGGAUAUACGGGUGAAAAUAGCAUAGUAGAAGGCGAGUGUA [SameState1 Malc#12]
## Result 106 nM

## Task Recorded apparent KD of MS2 coat protein for ACAAAGCUACACUAGGAUAUGGGUGUCUAAACAUGAGGAUCACCCAUGUGAUGGCAAAACAAAGCUCAGAAGGAGUCGUAGCCCA [Bientevece] , please?
## Result 34.9 nM

## Task So what does the record say about apparent KD of MS2 coat protein for AACAAUCUAUCUGAGGAUAUGAUGUCAAAGACAUGAGGAUCACCCAUGUGCAGGAAAACUGCAUAUCAGAAGGCAGAUAGAUUGA [SS2: 1103] ?
## Result 18.4 nM

## Task What does the data say about its apparent KD of MS2 coat protein? Entry: UAAAAACAUGAGGAUCACCCAUGUAGAAAUAUGGGAGGAUAUACGAAGACGAAAGUCAAAGUAGAAGGCCUAAAAU [Mat - Same State 1 - Eli mod - D104]
## Result 58 nM

## Task # apparent KD of MS2 coat protein lookup, item AACAAUCUAUCUGAGGAUAUGUGUCGAAAGACAUGAGGAUCACCCAUGUCAAAACAUGGGAAGAUACAGAAGGCAGAUAGAUUGA [SS2: 1159]
## Result 417 nM

## Task # input sequence: GAAAAACAUGAGGAUCACCCAUGUUAAUAUAUGGGAGGAUAUACAAAGACGAAAGUCAAAGUAGAAGGCCUAAAAG ; wanted: its apparent KD of MS2 coat protein
## Result 43.3 nM

## Task Find the recorded apparent KD of MS2 coat protein belonging to AGCUAACAUGAGGAUCACCCAUGUCCGCUAAACCAAGGAUAUGGGACGAAUAAAAUCGGACCAGAAGGUGGCCGAC [Qureaed] and report it.
## Result 222 nM

Origin of measurements: the supplement of paper PMC9170038
